biological target: mouse melanocortin-4 receptor (mouse) (UniProt P56450)
Sequence (P56450 whole entry): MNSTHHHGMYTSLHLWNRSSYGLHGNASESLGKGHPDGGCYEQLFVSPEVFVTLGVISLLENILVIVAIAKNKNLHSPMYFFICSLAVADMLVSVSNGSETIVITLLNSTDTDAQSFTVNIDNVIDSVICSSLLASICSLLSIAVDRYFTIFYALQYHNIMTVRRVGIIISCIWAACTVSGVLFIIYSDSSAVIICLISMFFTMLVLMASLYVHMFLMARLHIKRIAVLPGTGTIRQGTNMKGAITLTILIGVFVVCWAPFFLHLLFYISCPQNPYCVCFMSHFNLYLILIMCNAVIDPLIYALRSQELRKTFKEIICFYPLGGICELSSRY
Square brackets hold non-standard residues; d marks the D form. dPhe(4-I) = N[C@H](Cc1ccc(I)cc1)C(=O)O
Measured property: agonist EC50, cAMP AlphaScreen

Problem: Specify reported agonist EC50, cAMP AlphaScreen for the binder shown: Ac-[dPhe(4-I)]RWR-NH2 (SMILES CC(=O)N[C@H](Cc1ccc(I)cc1)C(=O)N[C@@H](CCCNC(=N)N)C(=O)N[C@@H](Cc1c[nH]c2ccccc12)C(=O)N[C@@H](CCCNC(=N)N)C(N)=O) [Ac-DPhe(pI)-Arg-Trp-Arg-NH2]
Solution: > 100 µM

Problem: Identify measured agonist EC50, cAMP AlphaScreen associated with Ac-[dPhe(4-I)]R[dPhe(4-I)]R-NH2 (SMILES CC(=O)N[C@H](Cc1ccc(I)cc1)C(=O)N[C@@H](CCCNC(=N)N)C(=O)N[C@H](Cc1ccc(I)cc1)C(=O)N[C@@H](CCCNC(=N)N)C(N)=O) [Ac-DPhe(pI)-Arg-DPhe(pI)-Arg-NH2]
Solution: > 100 µM

Problem: Tell me agonist EC50, cAMP AlphaScreen reported for Ac-[dPhe(4-I)]R[dPhe(4-I)][dK]-NH2 (SMILES CC(=O)N[C@H](Cc1ccc(I)cc1)C(=O)N[C@@H](CCCNC(=N)N)C(=O)N[C@H](Cc1ccc(I)cc1)C(=O)N[C@H](CCCCN)C(N)=O) [Ac-DPhe(pI)-Arg-DPhe(pI)-DLys-NH2]
Solution: > 100 µM

Problem: Quick one: give measured agonist EC50, cAMP AlphaScreen for Ac-[dPhe(4-I)]RW[dK]-NH2 (SMILES CC(=O)N[C@H](Cc1ccc(I)cc1)C(=O)N[C@@H](CCCNC(=N)N)C(=O)N[C@@H](Cc1c[nH]c2ccccc12)C(=O)N[C@H](CCCCN)C(N)=O) [Ac-DPhe(pI)-Arg-Trp-DLys-NH2]
Solution: > 100 µM
